Tested on: HLA-HHDII/DP4 mice
Protocol description: Ex vivo IFNγ ELISpot after peptide immunisation, HHDII/DP4 mice
Type: in vivo, mouse
Stated conditions: splenocytes after 7 days culture
Quantity: IFNγ response in presence of CD8 blocking antibody

- Substance: "A-Hcit-FINYV-Hcit-NCFRMTDQEAIQDL [NPM 266-287 Hcit]"
  Assayed target: "HLA-HHDII/DP4 mice"
  Reported result: "lost"
- Substance: "VLAAVY-Hcit-AL [Aldolase 209-217]"
  Assayed target: "HLA-HHDII/DP4 mice"
  Reported result: "lost"
